- Tested on: SW480 colon carcinoma cells
- EXPERIMENTAL_DETAILS: Cell viability assay (CellTiter-Glo)
- Assay type: cell-based, human
- EXPERIMENTAL_CONTEXT: Homo sapiens, read-out: percent inhibition at 10 μM (given for EC50 >10 μM), 10 μM
Label True when inhibition at 10 µM is at or above 20%; otherwise label False.

# example entries with known answers
CN1CCC(F)(C(=O)Nc2cc3cc(-c4cnccn4)ccc3cn2)CC1
False
O=C(CN1CCOCC1)Nc1cc2cc(-c3cnccn3)ccc2cn1
True

Ask: Could you please find out whether O=C(CN1CCOCC1)Nc1cc2cc(-c3cccnc3)ccc2cn1 has inhibition at 10 µM that meets 20% or exceeds it?
Result: False

Ask: Could you please find out whether CN1CCC(C(=O)Nc2cc3cc(-c4cncc(F)c4)ccc3cn2)CC1 has inhibition at 10 µM that meets 20% or exceeds it?
Result: True

Ask: Could you please find out whether CN1CCCC(C(=O)Nc2cc3cc(-c4cnccn4)ccc3cn2)CC1 (stereo not drawn) has inhibition at 10 µM that meets 20% or exceeds it?
Result: True

Ask: Could you please find out whether [2H]c1nc([2H])c(-c2ccc3cnc(NC(=O)CN4CCOCC4)cc3c2)c([2H])c1[2H] has inhibition at 10 µM that meets 20% or exceeds it?
Result: False

Ask: Could you please find out whether CN1CCC(c2nc(C(=O)Nc3cc4cc(-c5cncc(F)c5)ccc4cn3)co2)CC1 has inhibition at 10 µM that meets 20% or exceeds it?
Result: False

Ask: Could you please find out whether O=C(Nc1cc2cc(-c3cccnc3)ccc2cn1)C12CCN(CC1)CC2 has inhibition at 10 µM that meets 20% or exceeds it?
Result: True

====

- System: SW480 colon carcinoma cells
- EXPERIMENTAL_DETAILS: Cell viability assay (CellTiter-Glo)
- Assay type: cell-based, human
- EXPERIMENTAL_CONTEXT: Homo sapiens, read-out: percent inhibition at 10 μM (given for EC50 >10 μM), 10 μM
QUANTITY_MEASURED: inhibition at 10 µM (%)
# unit: % | format: bare number

O=C(CN1CCOCC1)Nc1cc2cc(-c3cccnc3)c(F)cc2cn1 [Compound 144]
22
CN1CCN(C[C@H]2CC[C@H](C(=O)Nc3cc4cc(-c5cnccn5)ccc4cn3)CC2)CC1 [Compound 73]
50.7
CC(C)N1CCC(c2nc(C(=O)Nc3cc4cc(-c5cncc(F)c5)ccc4cn3)co2)CC1 [Compound 150]
10.9

Ask: Returns the measured inhibition at 10 µM for the input compound. Input: O=C(Nc1cc2cc(-c3cnccn3)ccc2cn1)C1CCN(CCF)CC1 [Compound 77]
Result: 33.8

====

- STUDY_TARGET: recombinant GSK3β kinase (Homo sapiens (Human))
- Sequence (P49841 whole entry): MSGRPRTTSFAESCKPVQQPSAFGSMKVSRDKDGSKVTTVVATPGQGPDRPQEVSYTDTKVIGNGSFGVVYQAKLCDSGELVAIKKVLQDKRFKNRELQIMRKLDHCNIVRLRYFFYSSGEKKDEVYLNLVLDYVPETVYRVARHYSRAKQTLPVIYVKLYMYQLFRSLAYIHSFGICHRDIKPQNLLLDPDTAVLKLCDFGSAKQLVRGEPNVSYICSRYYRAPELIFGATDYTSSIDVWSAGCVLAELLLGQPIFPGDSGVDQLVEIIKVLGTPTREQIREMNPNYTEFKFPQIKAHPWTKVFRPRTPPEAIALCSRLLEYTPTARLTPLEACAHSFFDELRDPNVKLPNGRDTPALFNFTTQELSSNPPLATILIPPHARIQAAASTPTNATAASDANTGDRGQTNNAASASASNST
- EXPERIMENTAL_DETAILS: GSK3β kinase assay (Ser/Thr 09 peptide Z-lyte, FRET);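 note: FRET read-out as coumarin over fluorescein emission ratio, compounds incubated one hour at room temperature, IC50 from dose-response curve fit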
- Assay type: biochemical
- EXPERIMENTAL_CONTEXT: GSK3β kinase; head says EC50, method says IC50; ATP 46 μM
QUANTITY_MEASURED: pEC50
Note: pEC50 values are expressed as the negative base-10 logarithm of concentration in M.

CC(C)Nc1cncc(-c2ccc3cnc(NC(=O)c4cn(C5CCN(CCF)CC5)nn4)cc3c2)n1
5.16
CC(C)Nc1cncc(-c2ccc3cnc(NC(=O)c4ccnc(N5CCN(C)CC5)c4)cc3c2)n1
5.20
O=C(CN1CCCC1)Nc1cc2cc(-c3cncc(F)c3)ccc2cn1
5.93
CC(C)N1CCC(Nc2cncc(-c3ccc4cnc(NC(=O)C5CC5)cc4c3)n2)CC1
7.24
CN1CCN(C[C@H]2CC[C@H](C(=O)Nc3cc4cc(-c5cncc(F)c5)ccc4cn3)CC2)CC1
6.01

Ask: Recall the recorded pEC50 for O=C(Nc1cc2cc(-c3cnccn3)ccc2cn1)C1CCN(C2COC2)CC1 with recombinant GSK3β kinase (Homo sapiens (Human)) and state it.
Result: 6.09

Ask: Recall the recorded pEC50 for CN1CCC(C(=O)Nc2cc3cc(-c4cncc(C#N)c4)ccc3cn2)CC1 with recombinant GSK3β kinase (Homo sapiens (Human)) and state it.
Result: 5.18

Ask: Recall the recorded pEC50 for CC(C)N1CCC(Nc2cncc(-c3ccc4cnc(NC(=O)C5CCCC5)cc4c3)n2)CC1 with recombinant GSK3β kinase (Homo sapiens (Human)) and state it.
Result: 7.11

Ask: Recall the recorded pEC50 for O=C(CN1CCOCC1)Nc1cc2cc(-c3cccnc3)c(F)cc2cn1 with recombinant GSK3β kinase (Homo sapiens (Human)) and state it.
Result: 5.90

Ask: Recall the recorded pEC50 for O=C(Nc1cc2cc(-c3cncc(OCC4CNC4)n3)ccc2cn1)c1ccc(F)cc1 with recombinant GSK3β kinase (Homo sapiens (Human)) and state it.
Result: 6.74

====

- STUDY_TARGET: recombinant DYRK1A kinase (Homo sapiens (Human), UniProt Q13627)
- EXPERIMENTAL_DETAILS: DYRK1A kinase assay (Ser/Thr 18 peptide Z-lyte, FRET)
- EXPERIMENTAL_CONTEXT: DYRK1A kinase; head says EC50, method says IC50; ATP 30 μM
Recorded pEC50 values for a group of compounds are listed next.
Note: pEC50 values are expressed as the negative base-10 logarithm of concentration in M.

Known pEC50 results, listed for orientation:
Nc1cncc(-c2ccc3cnc(NC(=O)c4ccc(OC5CCNCC5)cc4)cc3c2)c1 [Compound 37]
9.00
CC(C)Nc1cncc(-c2ccc3cnc(NC(=O)c4cccc(C5CCN(C)CC5)c4)cc3c2)n1 [Compound 93]
9.00
NC1CN(c2cncc(-c3ccc4cnc(NC(=O)c5ccc(F)cc5)cc4c3)n2)C1 [Compound 122]
7.96
CNC(=O)c1cncc(-c2ccc3cnc(NC(=O)C4CCN(C)CC4)cc3c2)c1 [Compound 58]
8.05
CN1CCC(n2cc(C(=O)Nc3cc4cc(-c5cnc6cc[nH]c6c5)ccc4cn3)cn2)CC1 [Compound 127]
8.30
CN1CCC(n2cc(C(=O)Nc3cc4cc(-c5cnc6[nH]ccc6c5)ccc4cn3)cn2)CC1 [Compound 126]
7.66
COc1cncc(-c2ccc3cnc(NC(=O)C4CCN(C)CC4)cc3c2)c1 [Compound 33]
8.40
CC(C)N1CCN(c2cc(C(=O)Nc3cc4cc(-c5cncc(NC(C)(C)C)n5)ccc4cn3)ccn2)CC1 [Compound 101]
8.40

Ask: Returns the measured pEC50 for the input compound. Input: CN1CCN(C[C@H]2CC[C@H](C(=O)Nc3cc4cc(-c5cncc(F)c5)ccc4cn3)CC2)CC1 [Compound 17]
Result: 8.52

Ask: Returns the measured pEC50 for the input compound. Input: O=C(Nc1cc2cc(-c3cncc(OC4CCNCC4)c3)ccc2cn1)c1ccc(F)cc1 [Compound 35]
Result: 8.00

====

Recorded EC50 values for a group of compounds are listed next.
- System: pT212Tau in Dyrk1a- and MAPT-overexpressing HEK293T cells
- EXPERIMENTAL_DETAILS: Tau phosphorylation at Threonine 212 (pT212Tau) sandwich ELISA in double transfected cells
- EXPERIMENTAL_CONTEXT: Homo sapiens, HEK-293T, read-out: Thr212 EC50 (μM)
# unit: µM | format: bare number

Known EC50 results, listed for orientation:
O=C(Nc1cc2cc(-c3cccnc3)ccc2cn1)C12CCN(CC1)CC2
0.213
COc1cncc(-c2ccc3cnc(NC(=O)C4CCN(C)CC4)cc3c2)c1
0.033
CN1CCC(C(=O)Nc2cc3cc(-c4cncc(C#N)c4)ccc3cn2)CC1
0.161
CN1CCC(C(=O)Nc2cc3cc(-c4cccnc4)ccc3cn2)CC1
0.019
O=C(Nc1cc2cc(-c3cnccn3)ccc2cn1)C1CCN(CCF)CC1
0.062
O=C(Nc1cc2cc(-c3cncc(CN4CCC(O)CC4)c3)ccc2cn1)C1CC1
0.003
O=C(CN1CCOCC1)Nc1cc2cc(-c3cccnc3)c(F)cc2cn1
0.051
O=C(Nc1cc2cc(-c3cncc(CN4CCOCC4)c3)ccc2cn1)C1CC1
0.05

Ask: Returns the measured EC50 for the input compound. Input: O=C(CN1CCCC1)Nc1cc2cc(-c3cnccn3)ccc2cn1
Result: 2.1

Ask: Returns the measured EC50 for the input compound. Input: Cc1nccn1CC(=O)Nc1cc2cc(-c3cccnc3)ccc2cn1
Result: 0.043

Ask: Returns the measured EC50 for the input compound. Input: CN1CCCN(CC(=O)Nc2cc3cc(-c4cccnc4)ccc3cn2)CC1
Result: 0.284

Ask: Returns the measured EC50 for the input compound. Input: O=C(Nc1cc2cc(-c3cnccn3)ccc2cn1)[C@H]1CC[C@H](N2CCOCC2)CC1
Result: 0.019

Ask: Returns the measured EC50 for the input compound. Input: [2H]c1nc([2H])c(-c2ccc3cnc(NC(=O)CN4CCN(C)CC4)cc3c2)c([2H])c1[2H]
Result: 0.121

Ask: Returns the measured EC50 for the input compound. Input: CN1CCC(C(=O)Nc2cc3cc(-c4cncc(F)c4)ccc3cn2)CC1
Result: 0.205

Ask: Returns the measured EC50 for the input compound. Input: O=C(CN1CCOCC1)Nc1cc2cc(-c3cccnc3)ccc2cn1
Result: 0.046

Ask: Returns the measured EC50 for the input compound. Input: Cc1cc2ncc(-c3ccc4cnc(NC(=O)c5ccnc(N6CCN(C)CC6)c5)cc4c3)cc2[nH]1
Result: 3.2

Ask: Returns the measured EC50 for the input compound. Input: O=C(Nc1cc2cc(-c3cncc(C(F)F)c3)ccc2cn1)c1cccc(C2CCNCC2)c1
Result: 1.4
